condition_parameters: human gut metagenome, 24 h, 2 µM; further: call rule not given here
measured_metric: Bacterial Biotransformation

compound | Bacterial Biotransformation
Nc1c2c(nc3ccccc13)CCCC2 | Compound NOT metabolized
CCN(CC)CCNC(C(=O)OCCC(C)C)c1ccccc1.Cl.Cl (stereo not given) | Compound metabolized
O=C(NCc1ccccc1)OCCO [BURAMATE] | Compound NOT metabolized
O=P(O)(O)O.c1ccc(CN(CC2=NCCN2)c2ccccc2)cc1 [ANTAZOLINE PHOSPHATE] | Compound NOT metabolized

Here's the next entry for you.
Tell me its Bacterial Biotransformation given C#C[C@]1(O)CC[C@H]2[C@@H]3CCC4=CC(=O)CC[C@@H]4[C@H]3CC[C@@]21CC as the entry.
Compound metabolized

###

assay_details: The drug is tested on Z-011 corresponding to mouse gut metagenome with ENA study accession number: PRJEB37062 and ENA sample accession number: ERS12561811 for biotransformation under anaerobic condition. The drug concentrations were measured over 9 timepoints collected between 0 and 24 hours of incubation by liquid-chromatography-coupled mass spectrometry (LC–MS)
condition_parameters: 2 µM

compound | Bacterial Biotransformation
CCCCc1nc(Cl)c(CO)n1Cc1ccc(-c2ccccc2-c2nn[nH]n2)cc1 [LOSARTAN] | Compound NOT metabolized
CCN(CC)CCOC(=O)C(Cc1cccc2ccccc12)CC1CCCO1.O=C(O)C(=O)O (centres undefined) [NAFRONYL OXALATE] | Compound NOT metabolized
CCOc1ccc(NC(C)=O)cc1 [PHENACETIN] | Compound NOT metabolized

###

condition_parameters: human gut metagenome, 24 h, 2 µM
measured_metric: Bacterial Biotransformation

Answered examples (4):
compound | Bacterial Biotransformation
CN(C)C(=O)C(CCN1CCC(O)(c2ccc(Cl)cc2)CC1)(c1ccccc1)c1ccccc1 [LOPERAMIDE] | Compound metabolized
CCCCc1nc(Cl)c(CO)n1Cc1ccc(-c2ccccc2-c2nn[nH]n2)cc1 [LOSARTAN] | Compound metabolized
Cc1cc2c(cc1S(N)(=O)=O)S(=O)(=O)CCC2 | Compound NOT metabolized
Cc1ccnc2c1NC(=O)c1cccnc1N2C1CC1 [NEVIRAPINE] | Compound NOT metabolized

Here's the next entry for you.
Tell me its Bacterial Biotransformation given COc1cc2nc(N3CCN(C(=O)c4ccco4)CC3)nc(N)c2cc1OC [PRAZOSIN] as the entry.
Compound NOT metabolized

###

assay_details: The drug is tested on Z-008 corresponding to metagenome with ENA study accession number: PRJEB37062 and ENA sample accession number: ERS12561808 for biotransformation under anaerobic condition. The drug concentrations were measured over 9 timepoints collected between 0 and 24 hours of incubation by liquid-chromatography-coupled mass spectrometry (LC–MS)
condition_parameters: 2 µM
measured_metric: Bacterial Biotransformation

Answered examples (5):
molecule | measured_metric | observed
CC[C@@H](CO)NC(=O)[C@@H]1C=C2c3cccc4c3c(cn4C)C[C@H]2N(C)C1.O=C(O)/C=C\C(=O)O [METHYSERGIDE MALEATE] | Bacterial Biotransformation | Compound NOT metabolized
COc1ccc2[nH]c([S+]([O-])Cc3ncc(C)c(OC)c3C)nc2n1 (stereo unspecified) | Bacterial Biotransformation | Compound metabolized
CN1CCOC(c2ccccc2)c2ccccc2C1 (stereo unspecified) | Bacterial Biotransformation | Compound NOT metabolized
CC(C)(C#N)c1cc(Cn2cncn2)cc(C(C)(C)C#N)c1 | Bacterial Biotransformation | Compound NOT metabolized
CCc1nc(N)nc(N)c1-c1ccc(Cl)cc1 | Bacterial Biotransformation | Compound NOT metabolized

Tell me its Bacterial Biotransformation given CCCc1nc(C(C)(C)O)c(C(=O)OCc2oc(=O)oc2C)n1Cc1ccc(-c2ccccc2-c2nnn[nH]2)cc1 as the entry.
Compound metabolized

Tell me its Bacterial Biotransformation given COc1ccccc1OCC(O)COC(N)=O (stereo unspecified) as the entry.
Compound NOT metabolized

###

assay_details: The drug is tested on Z-016 corresponding to mouse gut metagenome with ENA study accession number: PRJEB37062 and ENA sample accession number: ERS12561815 for biotransformation under anaerobic condition. The drug concentrations were measured over 9 timepoints collected between 0 and 24 hours of incubation by liquid-chromatography-coupled mass spectrometry (LC–MS)
condition_parameters: 2 µM
measured_metric: Bacterial Biotransformation

Answered examples (5):
molecule | observed
OC(Cn1cncn1)(Cn1cncn1)c1ccc(F)cc1F | Compound NOT metabolized
CCC1(c2ccc(N)cc2)CCC(=O)NC1=O (centres undefined) [AMINOGLUTETHIMIDE] | Compound NOT metabolized
NC(CO)(CO)CO.O=C(c1ccccc1)c1ccc2n1CCC2C(=O)O (centres undefined) | Compound metabolized
Cc1nc2n(c(=O)c1CCN1CCC(c3noc4cc(F)ccc34)CC1)CCCC2O (centres undefined) | Compound NOT metabolized
O=C(CCCN1CCC(O)(c2ccc(Cl)cc2)CC1)c1ccc(F)cc1 | Compound NOT metabolized

Tell me its Bacterial Biotransformation given CCOC(=O)[C@H](CCc1ccccc1)N[C@@H](C)C(=O)N1[C@H](C(=O)O)C[C@@H]2CCC[C@@H]21 as the entry.
Compound metabolized

Tell me its Bacterial Biotransformation given NS(=O)(=O)c1cc2c(cc1Cl)N=C(CSCc1ccccc1)NS2(=O)=O [BENZTHIAZIDE] as the entry.
Compound NOT metabolized

Tell me its Bacterial Biotransformation given C[C@@H](CO)NC(=O)[C@@H]1C=C2c3cccc4[nH]cc(c34)C[C@H]2N(C)C1.O=C(O)/C=C\C(=O)O [ERGONOVINE MALEATE] as the entry.
Compound NOT metabolized

Tell me its Bacterial Biotransformation given Clc1ccc(Cn2c(CN3CCCC3)nc3ccccc32)cc1 as the entry.
Compound NOT metabolized

###

assay_details: The drug is tested on WLS-052 corresponding to human gut metagenome with ENA study accession number: PRJEB37062 and ENA sample accession number: ERS12561747 for biotransformation under anaerobic condition. The drug concentrations were measured over 9 timepoints collected between 0 and 24 hours of incubation by liquid-chromatography-coupled mass spectrometry (LC–MS)
condition_parameters: 2 µM
measured_metric: Bacterial Biotransformation

Answered examples (4):
compound | Bacterial Biotransformation
Cc1cc2c(cc1S(N)(=O)=O)S(=O)(=O)CCC2 | Compound NOT metabolized
COc1ccc2c(c1OC)C(=O)O[C@@H]2[C@H]1c2c(cc3c(c2OC)OCO3)CCN1C [NOSCAPINE] | Compound NOT metabolized
C=CCN1CC[C@]23c4c5ccc(O)c4O[C@H]2C(=O)CC[C@@]3(O)[C@H]1C5 [NALOXONE] | Compound NOT metabolized
CCN(CC)CCNC(=O)c1cc(Cl)c(N)cc1OC [METOCLOPRAMIDE] | Compound NOT metabolized

Tell me its Bacterial Biotransformation given COc1ccccc1OCC(O)COC(N)=O (centres undefined) [METHOCARBAMOL] as the entry.
Compound NOT metabolized

Tell me its Bacterial Biotransformation given CNCCC(Oc1ccc(C(F)(F)F)cc1)c1ccccc1 (centres undefined) [FLUOXETINE] as the entry.
Compound NOT metabolized

Tell me its Bacterial Biotransformation given O=P(O)(O)O.c1ccc(CN(CC2=NCCN2)c2ccccc2)cc1 [ANTAZOLINE PHOSPHATE] as the entry.
Compound NOT metabolized

Tell me its Bacterial Biotransformation given Cc1nc2n(c(=O)c1CCN1CCC(c3noc4cc(F)ccc34)CC1)CCCC2 [RISPERIDONE] as the entry.
Compound metabolized

###

assay_details: The drug is tested on WLS-007 corresponding to human gut metagenome with ENA study accession number: PRJEB37062 and ENA sample accession number: ERS12561742 for biotransformation under anaerobic condition. The drug concentrations were measured over 9 timepoints collected between 0 and 24 hours of incubation by liquid-chromatography-coupled mass spectrometry (LC–MS)
condition_parameters: 2 µM
measured_metric: Bacterial Biotransformation

Answered examples (5):
compound | observed
c1ccc([C@H]2CN3CCSC3=N2)cc1 | Compound metabolized
OC(Cn1cncn1)(Cn1cncn1)c1ccc(F)cc1F | Compound metabolized
CCOC(=O)[C@H](CCc1ccccc1)N[C@H]1CCc2ccccc2N(CC(=O)O)C1=O | Compound metabolized
O=P(O)(O)O.c1ccc(CN(CC2=NCCN2)c2ccccc2)cc1 [ANTAZOLINE PHOSPHATE] | Compound metabolized
OCCOCCN1CCN(C2=Nc3ccccc3Sc3ccccc32)CC1 | Compound NOT metabolized

Tell me its Bacterial Biotransformation given O=c1[nH]c2ccccc2n1C1CCN(CCCC(c2ccc(F)cc2)c2ccc(F)cc2)CC1 [PIMOZIDE] as the entry.
Compound metabolized

Tell me its Bacterial Biotransformation given CO[C@]12C[C@@H](COC(=O)c3cncc(Br)c3)CN(C)[C@@H]1Cc1cn(C)c3cccc2c13 as the entry.
Compound NOT metabolized

Tell me its Bacterial Biotransformation given CS(=O)(=O)O.O.O.O.O=C1Cc2cc(CCN3CCN(c4nsc5ccccc45)CC3)c(Cl)cc2N1 [ZIPRASIDONE MESYLATE] as the entry.
Compound NOT metabolized

Tell me its Bacterial Biotransformation given COC(=O)[C@H]1[C@H]2C[C@@H]3c4[nH]c5cc(OC)ccc5c4CCN3C[C@H]2C[C@@H](OC(=O)c2cc(OC)c(OC)c(OC)c2)[C@@H]1OC as the entry.
Compound NOT metabolized

Tell me its Bacterial Biotransformation given CCCc1nn(C)c2c(=O)[nH]c(-c3cc(S(=O)(=O)N4CCN(C)CC4)ccc3OCC)nc12.O=C(O)CC(O)(CC(=O)O)C(=O)O [SILDENAFIL CITRATE] as the entry.
Compound NOT metabolized

Tell me its Bacterial Biotransformation given COc1ccccc1OCC(O)COC(N)=O (configuration not stated) as the entry.
Compound NOT metabolized

Tell me its Bacterial Biotransformation given Nc1c2c(nc3ccccc13)CCCC2 as the entry.
Compound NOT metabolized

Tell me its Bacterial Biotransformation given CCOC(=O)[C@H](CCc1ccccc1)N[C@@H](C)C(=O)N1[C@H](C(=O)O)C[C@H]2CCCC[C@@H]21 as the entry.
Compound metabolized

Tell me its Bacterial Biotransformation given O=c1n(CCCN2CCN(c3cccc(Cl)c3)CC2)nc2ccccn12 as the entry.
Compound metabolized

Tell me its Bacterial Biotransformation given COc1ccccc1OCC(O)CN1CCN(CC(=O)Nc2c(C)cccc2C)CC1 (configuration not stated) as the entry.
Compound NOT metabolized

Tell me its Bacterial Biotransformation given CCc1nc(N)nc(N)c1-c1ccc(Cl)cc1 as the entry.
Compound metabolized

Tell me its Bacterial Biotransformation given CC(C)c1c(C(=O)Nc2ccccc2)c(-c2ccccc2)c(-c2ccc(F)cc2)n1CC[C@@H](O)C[C@@H](O)CC(=O)O as the entry.
Compound metabolized

Tell me its Bacterial Biotransformation given Cc1ccc(-c2nc3ccc(C)cn3c2CC(=O)N(C)C)cc1 as the entry.
Compound NOT metabolized

Tell me its Bacterial Biotransformation given Nc1nc2ccc(OC(F)(F)F)cc2s1 as the entry.
Compound metabolized

Tell me its Bacterial Biotransformation given CC(C)NCC(O)COc1ccc(COCCOC(C)C)cc1.CC(C)NCC(O)COc1ccc(COCCOC(C)C)cc1.O=C(O)/C=C/C(=O)O (configuration not stated) [BISOPROLOL FUMARATE] as the entry.
Compound metabolized

Tell me its Bacterial Biotransformation given CC(C)NCC(O)c1ccc(NS(C)(=O)=O)cc1 (configuration not stated) as the entry.
Compound NOT metabolized

Tell me its Bacterial Biotransformation given CNC(=C[N+](=O)[O-])NCCSCc1ccc(CN(C)C)o1 as the entry.
Compound NOT metabolized

Tell me its Bacterial Biotransformation given CC(C)(Oc1ccc(CCNC(=O)c2ccc(Cl)cc2)cc1)C(=O)O [BEZAFIBRATE] as the entry.
Compound metabolized

Tell me its Bacterial Biotransformation given CN1C[C@H](C(=O)N[C@]2(C)O[C@@]3(O)[C@@H]4CCCN4C(=O)[C@H](Cc4ccccc4)N3C2=O)C=C2c3cccc4[nH]cc(c34)C[C@H]21.CN1C[C@H](C(=O)N[C@]2(C)O[C@@]3(O)[C@@H]4CCCN4C(=O)[C@H](Cc4ccccc4)N3C2=O)C=C2c3cccc4[nH]cc(c34)C[C@H]21.O=C(O)C(O)C(O)C(=O)O [ERGOTAMINE TARTRATE] as the entry.
Compound metabolized

Tell me its Bacterial Biotransformation given CN1CCN(C(=O)O[C@H]2c3nccnc3C(=O)N2c2ccc(Cl)cn2)CC1 as the entry.
Compound NOT metabolized

Tell me its Bacterial Biotransformation given CN/C(=N/CCSCc1nc[nH]c1C)NC#N as the entry.
Compound NOT metabolized

Tell me its Bacterial Biotransformation given CCOc1ccc(NC(C)=O)cc1 as the entry.
Compound NOT metabolized
